Reported protein stability index values follow for various variants
B1: HESX1 (parent)
chain: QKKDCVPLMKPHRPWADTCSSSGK

variants of: B1; assay: protein stability index of a GFP-peptide fusion (GPS, HEK-293T) (PSI 1-6); higher = more stable; details: c terminus: a fixed tail appended;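 further: lentivirally expressed fusions sorted by FACS into six bins by GFP to DsRed ratio, PSI derived from sequencing read proportions per bin multiplied by bin number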
Quick one: just the number, no unit, thanks!

// known answers, use as guide
1) S22W    2.12
2) C5Q    2.49
3) S20A    3.71
4) S20H    3.24
5) L8W    3.47

So, `P14M` ? Its protein stability index was 2.84

So, `W15T` ? Its protein stability index was 5.26

So, `P7T` ? Its protein stability index was 2.7

So, `G23H` ? Its protein stability index was 2.62

So, `Q1W` ? Its protein stability index was 2.69

So, `S20Q` ? Its protein stability index was 3.05

So, `T18G` ? Its protein stability index was 3.69

So, `W15Q` ? Its protein stability index was 4.79
